Exercise: for every item that follows, state its recorded log2 fold change of degron read counts.
# Tested System: T1, CRBN, Q96SW2;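 also: pooled lentiviral library of zinc finger degron-EGFP fusions in mCherry-positive Jurkat cells, FACS-sorted after compound exposure, with degron abundance counted by next-generation sequencing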
# T1 chain: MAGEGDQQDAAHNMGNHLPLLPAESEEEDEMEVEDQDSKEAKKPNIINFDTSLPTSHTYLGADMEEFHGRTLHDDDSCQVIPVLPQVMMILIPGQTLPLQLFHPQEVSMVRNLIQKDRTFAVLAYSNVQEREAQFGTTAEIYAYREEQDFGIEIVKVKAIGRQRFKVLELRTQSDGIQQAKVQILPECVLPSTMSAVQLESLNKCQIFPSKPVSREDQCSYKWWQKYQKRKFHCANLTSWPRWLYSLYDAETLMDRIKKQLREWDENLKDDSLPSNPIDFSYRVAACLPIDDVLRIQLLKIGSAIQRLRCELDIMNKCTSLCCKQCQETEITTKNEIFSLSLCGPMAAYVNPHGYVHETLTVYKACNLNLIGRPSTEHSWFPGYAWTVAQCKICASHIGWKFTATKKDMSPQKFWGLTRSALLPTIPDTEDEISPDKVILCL
# Assay Protocol: log2 fold change of degron read counts, EGFP-low vs EGFP+ sorted cells (limma voom), compound-induced degradation; higher = more compound-induced degradation of the degron-EGFP fusion; degrons are variants of IKZF1/3 zinc finger 2; compound dose not given here
# Settings: Jurkat; 18 h; compound: thalidomide
In all, about 8,300 sequences were measured (“log2 fold change of degron read counts, EGFP-low vs EGFP+ sorted cells (limma voom), compound-induced degradation”: median about -1.1, highest 2% from about 3.2 on). This excerpt belongs to a sample that is enriched for the highest values.
Numbers only.

Sample answers from the record:
INSERT INTO assay_data (residue_sequence, reported_result) VALUES
  ('FMCEICGHIFTQKGNLLRHIKL [46F_47M_49E_50I_52G_53H_54I_55F_67L_, Q9UKT9]', -2.73),
  ('FNCEVCGAPFTQKGNLLRHIKL [46F_47N_49E_50V_52G_53A_54P_55F_67L_, Q9UKT9]', 0.847),
  ('FFCEVCGAPFTQKGNLLRHIKL [46F_47F_49E_50V_52G_53A_54P_55F_67L_, Q9UKT9]', 1.73);

Lookup: Return reported log2 fold change of degron read counts; argument: FACEVCGAPFTQKGNLLRHIKL [46F_47A_49E_50V_52G_53A_54P_55F_67L_, Q9UKT9]
Found: 0.871
